B1: VH:VL chains; a variant is named by its letters at X, in order (parent)
chain 1: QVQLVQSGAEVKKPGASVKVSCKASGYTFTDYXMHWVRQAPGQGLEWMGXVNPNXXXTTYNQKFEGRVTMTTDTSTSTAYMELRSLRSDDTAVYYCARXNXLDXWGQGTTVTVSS
chain 2: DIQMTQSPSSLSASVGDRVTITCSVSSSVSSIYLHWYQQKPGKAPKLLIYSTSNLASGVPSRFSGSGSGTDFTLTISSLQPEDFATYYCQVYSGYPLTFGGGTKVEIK

Variants of: B1
experimental_details: yeast display scFab, FACS + sequencing
quantity_name: non-specific binding call

These recorded examples may help you get a feel for the data.
variant_identifier: DAGTGDGV
non-specific binding call: no binding
--
variant_identifier: YKRGASLA
non-specific binding call: binds
--
variant_identifier: VAGTGFWV
non-specific binding call: binds
--
variant_identifier: FRGGGSGF
non-specific binding call: binds
--
variant_identifier: STGGGDGV
non-specific binding call: no binding
--
variant_identifier: YKTRGAVS
non-specific binding call: binds
--
variant_identifier: DERRSSAF
non-specific binding call: no binding
--
variant_identifier: YAGEGDGA
non-specific binding call: no binding

Bench note: what non-specific binding call did YGGRGYAV show?
binds

Bench note: what non-specific binding call did YRTADDWV show?
binds

Bench note: what non-specific binding call did DATGGDGV show?
no binding

Bench note: what non-specific binding call did YRKGGAWY show?
binds
